// provenance: PubChem BioAssay AID256

System: CD2F1 mice, L1210 leukemia ip, survival T/C
Experiment: NCI In Vivo Anticancer Drug Screen. Data for tumor model L1210 Leukemia (intraperitoneal) in CD2F1 (CDF1) mice
Details: endpoint: mean survival time; dose: 100.0 mg/kg/injection; schedule: Q04DX003 (ip); vehicle: saline; higher = longer survival
Toxic doses and inconclusive results are not listed.
MEASURE: T/C

Known T/C results, listed for orientation:
COMPOUND: CCC12OC3(CC)C4C(=O)OC1C1(CC)OC4(CC)C3C(=O)OC21
MEASURED TARGET: CD2F1 mice, L1210 leukemia ip, survival T/C
ASSAY VALUE: 102 % of control
--
COMPOUND: C=CCNC(=O)C[n+]1cccc(C(=O)NC)c1
MEASURED TARGET: CD2F1 mice, L1210 leukemia ip, survival T/C
ASSAY VALUE: 100 % of control
--
COMPOUND: COc1ccc(/C=C2/C=C(c3ccccc3)OC2=O)cc1
MEASURED TARGET: CD2F1 mice, L1210 leukemia ip, survival T/C
ASSAY VALUE: 98 % of control
--
COMPOUND: CC(=O)NC(C)C1(O)CCCCC1 (stereo not given)
MEASURED TARGET: CD2F1 mice, L1210 leukemia ip, survival T/C
ASSAY VALUE: 100 % of control
--
COMPOUND: COc1cc2c(cc1OC)C(C)=NCC2
MEASURED TARGET: CD2F1 mice, L1210 leukemia ip, survival T/C
ASSAY VALUE: 104 % of control

Value sought for every listed compound: T/C.
1. Oc1ccc(Cl)cc1Cn1ccnc1
2. Cc1cccc(-n2cc(C#N)c3c(C)cc(C)nc32)c1
3. O=[N+]([O-])O.[Er]
4. N=C(N)c1ccc(N)cc1
5. Cc1ccc(C(C)C)c(OCC2=NCCN2C)c1
6. CNC(C)COc1ccc(O)cc1 (stereo not given)
7. CN(C)C(=O)c1ccc[n+](CC(=O)Nc2ccccc2)c1
8. CCCCOC(=O)c1ccc(NC(=O)NCCC)cc1

["101 % of control", "106 % of control", "87 % of control", "103 % of control", "106 % of control", "108 % of control", "103 % of control", "101 % of control"]

Value sought for every listed compound: T/C.
1. O=c1c(Cl)c2cc3c(cc2c2ccccc12)nc1ccccc1n3Cc1ccc([N+](=O)[O-])cc1
2. CC(=O)NC1CCCC(O)C1 (stereo not given)

95 % of control
102 % of control
